- assayTarget: human recombinant M2 muscarinic receptor (Homo sapiens, UniProt P08172)
- Sequence (P08172 whole entry): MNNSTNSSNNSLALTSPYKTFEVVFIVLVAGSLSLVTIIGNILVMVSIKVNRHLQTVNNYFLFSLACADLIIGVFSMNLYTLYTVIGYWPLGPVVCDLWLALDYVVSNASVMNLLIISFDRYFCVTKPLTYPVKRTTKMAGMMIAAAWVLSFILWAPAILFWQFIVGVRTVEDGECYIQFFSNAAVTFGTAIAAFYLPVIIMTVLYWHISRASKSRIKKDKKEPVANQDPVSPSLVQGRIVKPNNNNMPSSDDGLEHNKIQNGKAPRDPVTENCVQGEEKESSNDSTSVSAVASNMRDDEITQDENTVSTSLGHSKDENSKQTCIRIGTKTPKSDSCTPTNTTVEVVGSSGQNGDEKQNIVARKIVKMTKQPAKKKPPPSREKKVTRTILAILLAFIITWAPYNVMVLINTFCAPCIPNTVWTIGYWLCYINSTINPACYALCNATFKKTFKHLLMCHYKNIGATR
- experimentSummary: biochemical
endpointName: pIC50
Lab note — pIC50 values are minus log10 of concentrations in M.

Record CCNCC#CCOC(=O)[C@](O)(c1ccccc1)C1CCCCC1.Cl [R-DEO, hydrochloride salt] , field pIC50: 7.83

Record CCNCC#CCOC(=O)C(O)(c1ccccc1)C1CCCCC1.Cl (racemic) [RS-DEO, hydrochloride salt] , field pIC50: 8.15

Record CCNCC#CCOC(=O)[C@@](O)(c1ccccc1)C1CCCCC1.Cl [S-DEO, hydrochloride salt] , field pIC50: 6.75
